- Test system: Setaria
- TEST DETAILS: Pre-emergence test, Setaria
- Format: in vivo
- CONDITION: 250 g of ai/ha, after three weeks, 100% = total destruction
TEST READOUT: % damage, Setaria (%)

[[record]]
molecule = "Cc1ccc(-c2ccc(Cl)cc2)cc1C1(Cl)C(=O)CC(C)(C)CC1=O"
tested_on = "Setaria"
unit_symbol = "%"
assay_value = 90

[[record]]
molecule = "Cc1ccc(-c2ccc(Cl)cc2)cc1C1(Cl)C(=O)CC2(CCCCC2)C1=O (stereo not shown)"
tested_on = "Setaria"
unit_symbol = "%"
assay_value = 90

[[record]]
molecule = "Cc1ccc(-c2ccc(Cl)cc2)cc1C1(Cl)C(=O)CC2(CCCC2)CC1=O"
tested_on = "Setaria"
unit_symbol = "%"
assay_value = 90

[[record]]
molecule = "CC1(C)CC(=O)C(Cl)(c2cc(-c3ccc(Cl)cc3)ccc2Cl)C(=O)C1"
tested_on = "Setaria"
unit_symbol = "%"
assay_value = 80

